System Under Test: Full length Human HDAC8 (Homo sapiens)
Sequence (Q9BY41 1-377): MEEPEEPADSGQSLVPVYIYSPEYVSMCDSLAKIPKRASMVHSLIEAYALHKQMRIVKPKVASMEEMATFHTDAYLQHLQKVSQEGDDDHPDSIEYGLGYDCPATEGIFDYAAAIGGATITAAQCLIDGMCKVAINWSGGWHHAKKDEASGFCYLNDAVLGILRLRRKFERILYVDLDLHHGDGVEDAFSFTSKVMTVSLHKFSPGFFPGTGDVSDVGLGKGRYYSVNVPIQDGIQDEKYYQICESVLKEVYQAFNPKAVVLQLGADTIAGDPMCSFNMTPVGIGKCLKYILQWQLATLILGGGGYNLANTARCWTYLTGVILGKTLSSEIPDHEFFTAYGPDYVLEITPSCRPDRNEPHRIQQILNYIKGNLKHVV
Measured Attribute: IC50

- Compound: "O=C(NO)c1cc(F)c2c(c1)CCN(CC13C4C5C6C4C1C6C53)C2 (centres unmarked)"
  Measured Attribute: "IC50"
  Assay Value: "10 to 100 µM"

Would you mind listing IC50 for each of the following compounds?
1. CC(C)(C)CN1CCc2cc(C(=O)NO)cc(F)c2C1
2. O=C(NO)c1ccc2c(c1)CN1CCCCN1C2

Output:
1: 10 to 100 µM; 2: 1 to 10 µM

Would you mind listing IC50 for each of the following compounds?
1. O=C(NO)c1cc(F)c2c(c1)CCN(CC(F)(F)F)C2
2. O=C(NO)c1ccc2c(c1)C[C@@H]1COCC(=O)N1C2 (single isomer, unassigned)
3. O=C(NO)c1cc(F)c2c(c1)CCN(C1CC3(CCC3)C1)C2
4. O=C(NO)c1cc(F)c2c(c1)CCN(CC13CC4CC(CC(C4)O1)C3)C2
5. O=C(NO)c1cc(F)c2c(c1)C[C@@H]1CC3(CCCCC3)CN1C2 (single isomer, unassigned)
6. O=C(NO)c1ccc(CN2CC3CCC(C2)O3)c(F)c1
7. CN1CC2(CCCCC2)CC[C@@H]1Cc1cc(F)cc(C(=O)NO)c1 (single isomer, unassigned)
8. C[C@@H]1C[C@H]2c3c(F)cc(C(=O)NO)cc3CCN2C1 (single isomer, unassigned)

Output:
1 to 10 µM
1 to 10 µM
> 100 µM
10 to 100 µM
1 to 10 µM
0.1 to 1 µM
1 to 10 µM
1 to 10 µM

Would you mind listing IC50 for each of the following compounds?
1. CN1Cc2cc(C(=O)NO)ccc2CN1Cc1ccccc1
2. O=C(NO)c1cc(F)c2c(c1)CCn1cccc1-2
3. O=C(NO)c1ccc2c(c1)Cn1cccc1-2

Output:
1. 1 to 10 µM
2. 1 to 10 µM
3. 1 to 10 µM

###

System Under Test: Full length Human HDAC6 (Homo sapiens, UniProt Q9UBN7)
Measurement Parameters: ratio of HDAC8 IC50/HDAC6 IC50; Table 1, range class
Measured Attribute: Selectivity (6 v 8) (fold)

- Molecule: "O=C(NO)c1cc(F)c(CN2CCC3(CCCCC3)C2)cc1F"
  System Under Test: "Full length Human HDAC6 (Homo sapiens, UniProt Q9UBN7)"
  Assay Value: "III (III: >10-100)"
- Molecule: "O=C(NO)c1ccc2c(c1)CCN(CC13CC4CC(CC(C4)C1)C3)C2"
  System Under Test: "Full length Human HDAC6 (Homo sapiens, UniProt Q9UBN7)"
  Assay Value: "III (III: >10-100)"
- Molecule: "CC1(C)C[C@@H]2Cc3cc(C(=O)NO)cc(F)c3CN2C1 (single isomer, unassigned)"
  System Under Test: "Full length Human HDAC6 (Homo sapiens, UniProt Q9UBN7)"
  Assay Value: "III (III: >10-100)"
- Molecule: "CC1(CN2CCc3cc(C(=O)NO)cc(F)c3C2)CC1"
  System Under Test: "Full length Human HDAC6 (Homo sapiens, UniProt Q9UBN7)"
  Assay Value: "IV (IV: >100-1000)"
- Molecule: "O=C(NO)c1ccc(CN2CCc3c([nH]c4ccccc34)C2)c(F)c1"
  System Under Test: "Full length Human HDAC6 (Homo sapiens, UniProt Q9UBN7)"
  Assay Value: "III (III: >10-100)"

Would you mind listing Selectivity (6 v 8) (fold) for each of the following molecules?
1. CN1Cc2ccc(C(=O)NO)cc2CN1Cc1ccccc1
2. O=C(NO)c1ccc(CN2C3CCCC2CC3)c(F)c1
3. O=C(NO)c1ccc(CN2C3CCC2CC(=NO)C3)c(F)c1
4. O=C(NO)c1cc(F)c2c(c1)CCN([C@H]1CCC13CCCCC3)C2 (single isomer, unassigned)
5. O=C(NO)c1ccc(CN2CC3(CCCCC3)C2)c(F)c1
6. O=C(NO)c1ccc2c(c1)CN1CCCC[C@H]1C2 (single isomer, unassigned)
7. O=C(NO)c1ccc2c(c1)Cn1cccc1-2

Output:
1. II (II: >1-10)
2. II (II: >1-10)
3. III (III: >10-100)
4. IV (IV: >100-1000)
5. III (III: >10-100)
6. III (III: >10-100)
7. III (III: >10-100)

Would you mind listing Selectivity (6 v 8) (fold) for each of the following molecules?
1. O=C(NO)c1cc(F)c2c(c1)C[C@@H]1CCC3(CCCCC3)CN1C2 (single isomer, unassigned)
2. CN1Cc2cc(C(=O)NO)ccc2[C@H]2CCCN21 (single isomer, unassigned)
3. O=C(NO)c1ccc(CN2CCOCC2)c(F)c1
4. O=C(NO)c1ccc2c(c1)C[C@@H]1CCCN1C2 (single isomer, unassigned)
5. CN1Cc2cc(C(=O)NO)ccc2[C@@H]2CCCN21 (single isomer, unassigned)
6. O=C(NO)c1cc(F)c2c(c1)CCN(C1CC3(COC3)C1)C2

Output:
["IV (IV: >100-1000)", "II (II: >1-10)", "III (III: >10-100)", "III (III: >10-100)", "II (II: >1-10)", "IV (IV: >100-1000)"]

###

System Under Test: Full length Human HDAC6 (Homo sapiens, UniProt Q9UBN7)
Sequence (Q9UBN7 1-1215): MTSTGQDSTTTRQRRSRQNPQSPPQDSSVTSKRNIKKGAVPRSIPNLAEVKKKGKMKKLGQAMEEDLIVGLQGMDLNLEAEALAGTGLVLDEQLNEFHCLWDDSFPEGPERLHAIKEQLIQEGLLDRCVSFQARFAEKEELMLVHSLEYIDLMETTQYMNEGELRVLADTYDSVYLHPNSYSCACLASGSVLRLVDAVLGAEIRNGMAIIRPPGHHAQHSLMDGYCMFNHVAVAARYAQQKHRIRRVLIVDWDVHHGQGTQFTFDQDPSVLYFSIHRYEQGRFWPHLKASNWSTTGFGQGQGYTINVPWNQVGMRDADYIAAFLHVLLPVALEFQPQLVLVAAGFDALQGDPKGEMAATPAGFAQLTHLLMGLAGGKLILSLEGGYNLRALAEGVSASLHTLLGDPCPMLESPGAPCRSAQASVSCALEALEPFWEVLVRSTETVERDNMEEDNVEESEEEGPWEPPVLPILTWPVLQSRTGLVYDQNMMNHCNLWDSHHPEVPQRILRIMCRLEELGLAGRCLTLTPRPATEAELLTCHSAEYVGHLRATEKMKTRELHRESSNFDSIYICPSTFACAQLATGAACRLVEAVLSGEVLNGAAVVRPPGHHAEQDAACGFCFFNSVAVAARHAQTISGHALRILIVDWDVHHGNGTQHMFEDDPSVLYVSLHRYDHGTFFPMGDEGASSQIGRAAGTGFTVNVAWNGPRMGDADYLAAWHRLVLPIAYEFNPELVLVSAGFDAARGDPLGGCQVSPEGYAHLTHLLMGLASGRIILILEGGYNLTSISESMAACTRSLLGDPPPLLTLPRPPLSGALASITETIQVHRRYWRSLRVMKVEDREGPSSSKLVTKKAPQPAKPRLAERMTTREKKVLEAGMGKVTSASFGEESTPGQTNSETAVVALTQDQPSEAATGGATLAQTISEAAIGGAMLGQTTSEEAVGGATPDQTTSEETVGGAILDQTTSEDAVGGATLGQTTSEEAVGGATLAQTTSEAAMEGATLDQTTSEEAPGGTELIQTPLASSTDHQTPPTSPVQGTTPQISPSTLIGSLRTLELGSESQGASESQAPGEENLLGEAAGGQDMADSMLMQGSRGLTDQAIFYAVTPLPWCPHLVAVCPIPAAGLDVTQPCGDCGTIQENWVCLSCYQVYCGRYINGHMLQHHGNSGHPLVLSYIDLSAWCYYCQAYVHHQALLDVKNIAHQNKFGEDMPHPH
For each record, write down the corresponding IC50.

Would you mind listing IC50 for each of the following compounds?
1. C[C@@H]1C[C@H]2c3c(F)cc(C(=O)NO)cc3CCN2C1 (single isomer, unassigned)
2. CN1Cc2cc(C(=O)NO)ccc2-c2cccn21
3. O=C(NO)c1cc(F)c2c(c1)C[C@H]1CCCCN1C2 (single isomer, unassigned)
4. O=C(NO)c1ccc2c(c1)CN1CCC[C@@H]21 (single isomer, unassigned)
5. O=C(NO)c1cc(F)c2c(c1)CCN([C@@H]1CCC3(CCCCC3)C1)C2 (single isomer, unassigned)
6. O=C(NO)c1cc(F)c2c(c1)CCN(C1CCC1)C2
7. O=C(NO)c1cc(F)c2c(c1)CCN(Cc1ccccc1)C2

Output:
1: 1 to 100 nM; 2: 100 to 1000 nM; 3: 100 to 1000 nM; 4: 100 to 1000 nM; 5: 1 to 100 nM; 6: 1 to 100 nM; 7: 1 to 100 nM
